Reference for the values: the supplement of paper PMC12494721

Test system: Clostridium sporogenes DSM 1664
Assay: fold change of Tryptamine concentration vs plate DMSO controls (fold change (ratio)); higher = more amine produced, active = hit call of the paper (significant change in both replicates, either direction)
Conditions: incubation time: 27 h, anaerobic, 37 °C
Counter-ions that a name gives are not always drawn.
MEASURED ATTRIBUTE: fold change of Tryptamine concentration
Answer field: number only, no words.

COMPOUND: O=C(O)CNC(=O)c1ccccc1 [Hippuric acid] (20 µM)
RECORDED NUMBER: 1.05
//
COMPOUND: CC(=O)c1ccc2c(c1)N(CCCN1CCC(CCO)CC1)c1ccccc1S2 [Piperacetazine] (20 µM)
RECORDED NUMBER: 1.32
//
COMPOUND: COC(=O)Nc1nc2ccc(SC(C)C)cc2[nH]1 [Methiazole] (20 µM)
RECORDED NUMBER: 1.04
//
COMPOUND: Cc1ncc([N+](=O)[O-])n1CC(C)O (stereo not given) [Secnidazole] (20 µM)
RECORDED NUMBER: 0.0346

compound O=C(CCCl)NCc1ccccc1 [Beclamide] (20 µM) , fold change of Tryptamine concentration observed: 1.02

compound NC[C@@H]1O[C@@H](O[C@H]2[C@H](O)[C@@H](O[C@H]3O[C@H](CO)[C@@H](O)[C@H](N)[C@H]3O)[C@H](N)C[C@@H]2N)[C@@H](O)[C@H](O)[C@H]1O [Kanamycin A sulfate] (20 µM) , fold change of Tryptamine concentration observed: 1.06

compound CC(=O)CC(c1ccccc1)c1c(O)c2ccccc2oc1=O (stereo not given) [Warfarin] (20 µM) , fold change of Tryptamine concentration observed: 1.05

compound OC(CCN1CCCC1)(c1ccccc1)C1CCCCC1 (stereo not given) [Procyclidine hydrochloride] (20 µM) , fold change of Tryptamine concentration observed: 0.959

compound C[C@@H]1O[C@@H](O[C@H]2[C@H](Oc3cc(O)c(C(=O)CCc4ccc(O)cc4)c(O)c3)O[C@H](CO)[C@@H](O)[C@@H]2O)[C@H](O)[C@H](O)[C@H]1O [Naringin Dihydrochalcone] (50 µM) , fold change of Tryptamine concentration observed: 0.968

compound Nc1ccc(S(=O)(=O)Nc2ccccn2)cc1 [Sulfapyridine] (20 µM) , fold change of Tryptamine concentration observed: 0.998

---

Test system: Clostridium sporogenes DSM 1664
Experiment: fold change of Tryptamine concentration vs plate DMSO controls (fold change (ratio)); higher = more amine produced, active = hit call of the paper (significant change in both replicates, either direction);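 for the amine columns active = adjusted P below 0.05 in both replicates with a change the same way and a mean fold change under 0.8 or over 1.25; inactive = the rest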
Conditions: incubation time: 27 h, anaerobic, 37 °C
Use one of these outcomes when replying: active, inactive

Query :: Call for entry CCCCOC(=O)c1ccc(O)cc1 [Butylparaben] (20 µM) :
Result :: inactive

Query :: Call for entry O=C(CCCCCCC(=O)Nc1ccccc1)NO [Vorinostat] (20 µM) :
Result :: inactive

---

Test system: Klebsiella aerogenes DSM 30053
Assay: growth (OD595) fold change vs plate DMSO controls (fold change (ratio)); higher = more growth
Details: incubation time: 27 h, anaerobic, 37 °C
Where a name gives a salt, the structure may show the parent alone.
# growth values compiled below
Answer field: number only, no words.

COMPOUND: CCc1cccc(CC)c1NC(=O)CN(CC(=O)O)CC(=O)O [Etifenin] (20 µM)
MEASURED TARGET: Klebsiella aerogenes DSM 30053
MEASURED ATTRIBUTE: growth
RECORDED NUMBER: 1.08

COMPOUND: CC(=O)[C@@]1(O)CC[C@H]2[C@@H]3C[C@H](C)C4=CC(=O)C=C[C@]4(C)[C@@]3(F)[C@@H](O)C[C@@]21C [Fluorometholone] (20 µM)
MEASURED TARGET: Klebsiella aerogenes DSM 30053
MEASURED ATTRIBUTE: growth
RECORDED NUMBER: 1.01

compound Oc1c(I)cc(Cl)c2cccnc12 [Clioquinol] (20 µM) , growth observed: 0.978

compound CC/C=C(\C(=O)N[C@@H]1C(=O)N2C(C(=O)OCOC(=O)C(C)(C)C)=C(COC(N)=O)CS[C@H]12)c1csc(N)n1 [Cefcapene pivoxil hydrochloride monohydrate] (20 µM) , growth observed: 1.07

compound O=C(O)Cc1ccccc1Oc1ccc(Cl)cc1Cl [Fenclofenac] (20 µM) , growth observed: 0.998

compound CC(C)Cc1ccc([C@H](C)C(=O)O)cc1 [(S,+) Ibuprofen] (20 µM) , growth observed: 1.16

compound CC(Oc1c(Cl)cccc1Cl)C1=NCCN1 (configuration not stated) [Lofexidine] (20 µM) , growth observed: 1.06

compound CC(C(=O)O)c1ccc(C(=O)c2cccs2)cc1 (configuration not stated) [Suprofen] (20 µM) , growth observed: 0.986

compound COc1cnc(NS(=O)(=O)c2ccc(N)cc2)nc1 [Sulfameter] (20 µM) , growth observed: 0.981

compound NC(N)=Nc1nc(CSCCN/C=N/S(=O)(=O)c2ccc(Br)cc2)cs1 [Ebrotidine] (20 µM) , growth observed: 0.989

compound CNC(=C[N+](=O)[O-])NCCSCc1csc(CN(C)C)n1 [Nizatidine] (20 µM) , growth observed: 1.01

compound O=C1c2c(O)ccc(O)c2C(=O)c2c(NCCNCCO)ccc(NCCNCCO)c21 [Mitoxantrone dihydrochloride] (20 µM) , growth observed: 1.02

---

Tested on: Escherichia coli IAI1
Assay: growth (OD595) fold change vs plate DMSO controls (fold change (ratio)); higher = more growth
Conditions: incubation time: 27 h, anaerobic, 37 °C
Counter-ions that a name gives are not always drawn.
# growth values compiled below
Answer field: number only, no words.

Take a look at these entries with their results.
COMPOUND: CC(C)(C)NCC(O)c1cc(O)cc(O)c1 (stereo not drawn) [Terbutaline hemisulfate] (20 µM)
MEASURED TARGET: Escherichia coli IAI1
growth: 1.02

COMPOUND: CNCCC=C1c2ccccc2CCc2ccccc21 [Nortriptyline hydrochloride] (20 µM)
MEASURED TARGET: Escherichia coli IAI1
growth: 0.972

compound Nc1ccc(O)c(C(=O)O)c1 [Mesalamine] (20 µM) , growth observed: 0.983

---

Tested on: Ruminococcus gnavus DSM 108212
Test: growth (OD595) fold change vs plate DMSO controls (fold change (ratio)); higher = more growth
Details: incubation time: 27 h, anaerobic, 37 °C
Counter-ions that a name gives are not always drawn.
# growth values compiled below
Answer field: number only, no words.

MOLECULE: COCCOC(=O)C1=C(C)NC(C)=C(C(=O)OC(C)C)C1c1cccc([N+](=O)[O-])c1 (centres undefined) [Nimodipine] (20 µM)
MEASURED TARGET: Ruminococcus gnavus DSM 108212
growth: 0.991
//
MOLECULE: CCN[C@@H]1C[C@H](N)[C@@H](O[C@H]2OC(CN)=CC[C@H]2N)[C@H](O)[C@H]1O[C@H]1OC[C@](C)(O)[C@H](NC)[C@H]1O [Netilmicin sulfate] (20 µM)
MEASURED TARGET: Ruminococcus gnavus DSM 108212
growth: 0.912
//
MOLECULE: CCCc1cc(=O)[nH]c(=S)[nH]1 [Propylthiouracil] (20 µM)
MEASURED TARGET: Ruminococcus gnavus DSM 108212
growth: 1.05

Please examine the following record next.
The reported Ruminococcus gnavus DSM 108212 growth of CCCCc1oc2ccccc2c1C(=O)c1cc(I)c(OCCN(CC)CC)c(I)c1 [Amiodarone hydrochloride] (20 µM) is 0.65

---

System: Escherichia coli IAI1
Assay: fold change of Putrescine concentration vs plate DMSO controls (fold change (ratio)); higher = more amine produced, active = hit call of the paper (significant change in both replicates, either direction)
Conditions: incubation time: 27 h, anaerobic, 37 °C
Structures can show the parent of a compound that is named as a salt.
# fold change of Putrescine concentration values compiled below
Answer field: number only, no words.

COMPOUND: OCC(CO)N[C@H]1C[C@](O)(CO)[C@@H](O)[C@H](O)[C@H]1O [Voglibose] (20 µM)
fold change of Putrescine concentration: 0.984

compound CC(CN(C)C)C(C)(O)Cc1ccc(Cl)cc1 (stereo not drawn) [Clobutinol hydrochloride] (20 µM) , fold change of Putrescine concentration observed: 0.975

compound NCCc1cc[nH]n1 [Betazole hydrochloride] (20 µM) , fold change of Putrescine concentration observed: 0.987

---

# growth values compiled below
Test system: Ruminococcus gnavus DSM 108212
Experiment: growth (OD595) fold change vs plate DMSO controls (fold change (ratio)); higher = more growth
Settings: incubation time: 27 h, anaerobic, 37 °C
Structures can show the parent of a compound that is named as a salt.

COMPOUND: CC(=O)S[C@@H]1CC2=CC(=O)CC[C@]2(C)[C@H]2CC[C@@]3(C)[C@@H](CC[C@@]34CCC(=O)O4)[C@H]12 [Spironolactone] (20 µM)
MEASURED TARGET: Ruminococcus gnavus DSM 108212
RESULT: 0.833

COMPOUND: CN(C)CC/C=C1/c2ccccc2Sc2ccc(Cl)cc21 [Chlorprothixene hydrochloride] (20 µM)
MEASURED TARGET: Ruminococcus gnavus DSM 108212
RESULT: 0.904

Please examine the following record next.
compound O=C(O)c1cc(/N=N/c2ccc(S(=O)(=O)Nc3ccccn3)cc2)ccc1O [Sulfasalazine] (20 µM) , growth observed: 0.978
